tested on: Plasmodium berghei; assay: Screen against P. berghei liver stage (PbLuc), transformed with Luciferase, at 10uM; format: functional, HepG2; details: tested at 10 uM
About 8,600 (12%) of roughly 69,000 compounds showed an effect of 50% or more. What follows is part of a selection rich in strong results, with near analogues and random picks from the rest.
Please use T for INHIBITION under 40% and F for everything else, ties included.

compound: CSCC[C@@H](CO)Nc1ccc(-c2nc(-c3ccccc3F)no2)cn1
study target: Plasmodium berghei
class label: F
//
compound: CSCC[C@@H](CO)Nc1ccc(-c2nc(C3CC3)no2)cn1
study target: Plasmodium berghei
class label: F
//
compound: O=c1ccc(-n2ccnc2)nn1CCNS(=O)(=O)c1ccccc1Cl
study target: Plasmodium berghei
class label: T
//
compound: O=C1CC2(CCSC2)C(=O)N1Cc1coc(-c2ccc(F)cc2)n1 (stereo unspecified)
study target: Plasmodium berghei
class label: T
//
compound: O=c1ccc(-n2ccnc2)nn1CCNS(=O)(=O)c1ccc(Br)cc1
study target: Plasmodium berghei
class label: F
//
compound: CCOCC1CN(Cc2ccoc2)Cc2nn(C)cc21 (stereo unspecified)
study target: Plasmodium berghei
class label: T
//
compound: Cc1cc(CNc2ccc(-c3nc(C4CC4)no3)cn2)no1
study target: Plasmodium berghei
class label: T
//
compound: Cc1cnn(CCNCc2ccc(OCc3noc(C)n3)cc2)c1
study target: Plasmodium berghei
class label: F
//
compound: CSCC[C@@H](CO)Nc1ccc(-c2nc(-c3ccccc3C)no2)cn1
study target: Plasmodium berghei
class label: T
//
compound: CC(=O)NCC(=O)N1CCC2(CC1)NC(=O)CC2c1cnn(C)c1 (stereo unspecified)
study target: Plasmodium berghei
class label: F
//
compound: O=C(Cc1csc(-c2ccccc2F)n1)NCc1ccc(C(=O)O)cc1
study target: Plasmodium berghei
class label: T

###

test system: Plasmodium berghei; test: Screen against P. berghei liver stage (PbLuc), transformed with Luciferase, at 10uM; format: functional, HepG2; conditions: tested at 10 uM
Hit rate of the full screen: of about 69,000 compounds, about 8,600 (12%) showed an effect of 50% or more. The sample as a whole holds a higher share of strong results than the screen did.
Reported INHIBITION values for a set of molecules
quantity name: INHIBITION (%)

molecule: COC(=O)NCc1cc2n(n1)CCCN(C(C)=O)C2
quantity name: INHIBITION
test result: 9.3
//
molecule: COc1cccc(CNc2c(O)c(=O)c2=O)c1
quantity name: INHIBITION
test result: 0.207
//
molecule: O=C(NC[C@H]1CCCC[C@H]1O)c1cccc2[nH]c(-c3ccco3)nc12
quantity name: INHIBITION
test result: 23.3
//
molecule: Cc1nn(C)cc1C(=O)N1CCCn2nc(CN3CC[C@H](F)C3)cc2C1
quantity name: INHIBITION
test result: 38.5
//
molecule: CN(C)C(=O)c1c[nH]nc1-c1ccc(CNC(=O)c2cnccn2)cc1
quantity name: INHIBITION
test result: 0.5
//
molecule: COC(=O)NCC(=O)N1CCCn2nc(CN3CC[C@H](F)C3)cc2C1
quantity name: INHIBITION
test result: 59.1
//
molecule: CN(C)c1ccc(CNC(=O)NCCc2cccs2)cn1
quantity name: INHIBITION
test result: -11.9
//
molecule: O=C(CN1CCCCC1)Nc1ncc(Br)cc1Br
quantity name: INHIBITION
test result: 27.8
//
molecule: Nc1nccc(C2CCN(CC3CC3)C2)n1 (stereo unspecified)
quantity name: INHIBITION
test result: 20.2
//
molecule: Cc1cc(I)c2c(c1)C(=O)C(CN1CCCC1)(CN1CCCC1)CO2
quantity name: INHIBITION
test result: -55.3
//
molecule: Cc1ncsc1CN1C[C@@H](O)[C@](O)(CNC(=O)c2ccccn2)C1
quantity name: INHIBITION
test result: 18.9
